- TARGET_OR_SYSTEM: T1, CRBN, Q96SW2;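 also: pooled lentiviral library of zinc finger degron-EGFP fusions in mCherry-positive Jurkat cells, FACS-sorted after compound exposure, with degron abundance counted by next-generation sequencing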
- T1 chain: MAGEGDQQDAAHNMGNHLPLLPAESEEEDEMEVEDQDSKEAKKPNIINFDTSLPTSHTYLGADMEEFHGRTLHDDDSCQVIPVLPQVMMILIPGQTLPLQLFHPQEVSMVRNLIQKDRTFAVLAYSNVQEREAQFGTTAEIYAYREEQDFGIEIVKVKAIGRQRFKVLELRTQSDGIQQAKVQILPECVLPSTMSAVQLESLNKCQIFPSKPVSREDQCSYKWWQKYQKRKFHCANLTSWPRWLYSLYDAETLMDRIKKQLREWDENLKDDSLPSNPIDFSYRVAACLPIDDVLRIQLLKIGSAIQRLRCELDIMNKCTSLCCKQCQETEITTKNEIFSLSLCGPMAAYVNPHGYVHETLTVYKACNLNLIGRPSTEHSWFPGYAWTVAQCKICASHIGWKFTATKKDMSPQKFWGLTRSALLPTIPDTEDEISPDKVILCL
- PROTOCOL_DESCRIPTION: log2 fold change of degron read counts, EGFP-low vs EGFP+ sorted cells (limma voom), compound-induced degradation; higher = more compound-induced degradation of the degron-EGFP fusion; degrons are variants of IKZF1/3 zinc finger 2; compound dose not given here
- RUN_CONDITIONS: Jurkat; 18 h; compound: compound 19 (5-tert-butyl-thalidomide)
Whole data set: some 8,300 sequences, median “log2 fold change of degron read counts, EGFP-low vs EGFP+ sorted cells (limma voom), compound-induced degradation” near -1.1, cut for the highest 2% near 3.2. Only a selection was taken, and the highest values are over-represented in it overall.
READOUT_NAME: log2 fold change of degron read counts
Answer as a number with no unit attached.

Examples from the recorded data:
macromolecule_sequence="FTCPICGANFTQKGNLLRHIKL [46F_47T_49P_50I_52G_53A_54N_55F_67L_, Q9UKT9]" readout_value=0.0113
macromolecule_sequence="FVCEVCGAPFTQKGNLLRHIKL [46F_47V_49E_50V_52G_53A_54P_55F_67L_, Q9UKT9]" readout_value=2.23
macromolecule_sequence="FQCPICGANFTQKGNLLRHIKL [46F_47Q_49P_50I_52G_53A_54N_55F_67L_, Q9UKT9]" readout_value=0.555
macromolecule_sequence="FRCPICGANFTQKGNLLRHIKL [46F_47R_49P_50I_52G_53A_54N_55F_67L_, Q9UKT9]" readout_value=-0.337
macromolecule_sequence="FLCPICGANFTQKGNLLRHIKL [46F_47L_49P_50I_52G_53A_54N_55F_67L_, Q9UKT9]" readout_value=0.744
macromolecule_sequence="FLCEVCGAPFTQKGNLLRHIKL [46F_47L_49E_50V_52G_53A_54P_55F_67L_, Q9UKT9]" readout_value=2.39

Let us move to another entry and its log2 fold change of degron read counts.
Quick note, log2 fold change of degron read counts for FRCEVCGAPFTQKGNLLRHIKL [46F_47R_49E_50V_52G_53A_54P_55F_67L_, Q9UKT9] landed at 3.45
